Numbers sourced from paper PMC2756588.

# tested.on: T1, Pex13, P80667
# T1 sequence (P80667 295-386, looked up): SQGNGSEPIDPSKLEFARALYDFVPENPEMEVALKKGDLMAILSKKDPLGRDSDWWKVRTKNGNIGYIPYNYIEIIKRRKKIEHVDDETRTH
# method.description: SPOT array
# assay.context: median of control spots 1341
Please use 1 for SPOT intensity under 20 and -1 for everything else, ties included.

These recorded examples may help you get a feel for the data.
binder | cat
NSMRPPLLIPAATTK | -1
GSKSGPPPRPKKPST | -1
DHPKGPPPPPPPDEK | 1
LPMNIQPDLPPRKIM | -1
GDHPKGPPPPPPPPD | 1
RTIRKLPLMSLSEYF | 1

Ask | Input VPVAPPPPPASLGQS ; condition: SPOT intensity strictly below 20. Does it hold?
Reply | 1

Ask | Input LRWRHKFFLPAIAAI ; condition: SPOT intensity strictly below 20. Does it hold?
Reply | 1

Ask | Input SSSSSPPPLPTRRDH ; condition: SPOT intensity strictly below 20. Does it hold?
Reply | -1
